Test system: Escherichia coli (ATCC25922) or Staphylococcus aureus (ATCC25923)
Assay: Antibacterial MIC, microdilution method in Mueller-Hinton medium
Assay type: cell-based
Settings: Escherichia coli, 18 h, read-out: Potency (MIC)
READOUT: MIC

Here's what some known entries look like.
{"SAMPLE_SMILES": "Cc1cc(=O)oc2cc(Nc3nc(N(CCN)CCN)nc(N4C[C@H](N)C[C@H](N)C4)n3)ccc12", "ENDPOINT_RESULT": "> 64 µg/mL"}
{"SAMPLE_SMILES": "N[C@@H]1C[C@H](N)CN(c2nc(Nc3ccc(C(=O)CC(=O)Nc4cc(C(F)(F)F)ccc4Cl)cc3)nc(N3C[C@H](N)C[C@H](N)C3)n2)C1", "ENDPOINT_RESULT": "< 16 µg/mL"}
{"SAMPLE_SMILES": "NC[C@H]1[C@@H](O)CCN1c1nc(Nc2ccc(C(=O)CC(=O)Nc3ccccc3Cl)cc2)nc(N2C[C@H](N)C[C@H](N)C2)n1", "ENDPOINT_RESULT": "< 64 µg/mL"}
{"SAMPLE_SMILES": "N[C@@H]1C[C@H](N)CN(c2nc(Nc3ccc(C(=O)CC(=O)Nc4ccc5c(c4)OC(F)(F)O5)cc3)nc(N3C[C@H](N)C[C@H](N)C3)n2)C1", "ENDPOINT_RESULT": "< 16 µg/mL"}
{"SAMPLE_SMILES": "Cc1ccc(S(=O)(=O)N(Cc2ccccc2)c2ccc(NC(=O)c3ccc(Nc4nc(N5C[C@H](N)C[C@H](N)C5)nc(N5C[C@H](N)C[C@H](N)C5)n4)cc3O)cc2O)cc1", "ENDPOINT_RESULT": "< 16 µg/mL"}

Answer for every listed entry: what is its MIC? The entries follow.
1. N[C@@H]1C[C@H](N)CN(c2nc(Nc3ccc(C(=O)CC(=O)Nc4ccc(S(=O)(=O)Nc5ccc6cn[nH]c6c5)cc4)cc3)nc(N3C[C@H](N)C[C@H](N)C3)n2)C1
2. Cc1cc(=O)oc2cc(Nc3nc(N4C[C@H](N)C[C@H](N)C4)nc(N4C[C@H](O)C[C@@H](O)C4)n3)ccc12
3. N[C@@H]1C[C@H](N)CN(c2nc(Nc3ccc(C(=O)CC(=O)Nc4cccc(CO)c4)cc3)nc(N3C[C@H](N)C[C@H](N)C3)n2)C1
4. N#CCCNS(=O)(=O)c1ccc(Cl)c(Nc2nc(N3C[C@H](N)C[C@H](N)C3)nc(N3C[C@H](N)C[C@H](N)C3)n2)c1
5. CC(=O)Nc1ccc(Nc2nc(N3C[C@H](N)C[C@H](N)C3)nc(N3C[C@H](N)C[C@H](N)C3)n2)cc1O
6. CC(C)c1cc(C(=O)Nc2ccc(Nc3nc(N4C[C@H](N)C[C@H](N)C4)nc(N4C[C@H](N)C[C@H](N)C4)n3)cc2O)c(O)c(C(C)C)c1
7. N[C@@H]1C[C@H](N)CN(c2nc(Nc3ccc(C(=O)Nc4ccc5c(c4)OCO5)c(O)c3)nc(N3C[C@H](N)C[C@H](N)C3)n2)C1
8. N[C@@H]1C[C@H](N)CN(c2nc(NCCCn3ccnc3)nc(Nc3ccc(S(=O)(=O)Nc4ccc5cn[nH]c5c4)cc3)n2)C1

< 64 µg/mL
> 64 µg/mL
> 64 µg/mL
> 64 µg/mL
> 64 µg/mL
< 16 µg/mL
< 16 µg/mL
> 64 µg/mL

====

System: Escherichia coli (ATCC25922) or Staphylococcus aureus (ATCC25923)
Assay: Antibacterial MIC, microdilution method in Mueller-Hinton medium
Assay type: cell-based
Settings: Escherichia coli, 18 h, read-out: Potency (MIC)
READOUT: MIC

// below: answered compounds
{"SAMPLE_SMILES": "COc1cccc(S(=O)(=O)Nc2ccc(Nc3nc(N4C[C@H](N)C[C@H](N)C4)nc(N4C[C@H](N)C[C@H](N)C4)n3)cc2O)c1", "ENDPOINT_RESULT": "< 64 µg/mL"}
{"SAMPLE_SMILES": "N[C@@H]1C[C@H](N)CN(c2nc(Nc3ccc(C(=O)Nc4ccc(-c5ccccc5)cc4)c(O)c3)nc(N3C[C@H](N)C[C@H](N)C3)n2)C1", "ENDPOINT_RESULT": "< 16 µg/mL"}
{"SAMPLE_SMILES": "N[C@@H]1C[C@H](N)CN(c2nc(Nc3ccc(NC(=O)c4ccccc4Cl)c(O)c3)nc(N3C[C@H](N)C[C@H](N)C3)n2)C1", "ENDPOINT_RESULT": "< 64 µg/mL"}

// next entry
Hello, please tell me recorded MIC for this one: Cc1ccc(C(=O)Nc2cccc(Nc3nc(N4C[C@H](N)C[C@H](N)C4)nc(N4C[C@H](N)C[C@H](N)C4)n3)c2)c(O)c1 < 64 µg/mL

====

Answer each item with its documented MIC.
System: Escherichia coli (ATCC25922) or Staphylococcus aureus (ATCC25923)
Experiment: Antibacterial MIC, microdilution method in Mueller-Hinton medium
Format: cell-based
Conditions: Escherichia coli, 18 h, read-out: Potency (MIC)

Consider the reported MIC for these molecules:
{"SAMPLE_SMILES": "N[C@@H]1C[C@H](N)CN(c2nc(Nc3ccc(NC(=O)c4c(O)ccc5ccccc45)c(Cl)c3)nc(N3C[C@H](N)C[C@H](N)C3)n2)C1", "ENDPOINT_RESULT": "< 16 µg/mL"}
{"SAMPLE_SMILES": "N[C@@H]1C[C@H](N)CN(c2nc(NNc3cccc(F)c3)nc(N3C[C@H](N)C[C@H](N)C3)n2)C1", "ENDPOINT_RESULT": "> 64 µg/mL"}
{"SAMPLE_SMILES": "N[C@@H]1C[C@H](N)CN(c2nc(Nc3ccc(C(=O)CC(=O)Nc4ccccc4Cl)cc3)nc(N3C[C@@H](N)[C@@H](N)C3)n2)C1", "ENDPOINT_RESULT": "< 64 µg/mL"}
{"SAMPLE_SMILES": "N[C@@H]1C[C@H](N)CN(c2nc(Nc3ccc(NC(=O)c4cccc(O)c4O)cc3)nc(N3C[C@H](N)C[C@H](N)C3)n2)C1", "ENDPOINT_RESULT": "< 16 µg/mL"}
{"SAMPLE_SMILES": "CCN(c1ccc(Nc2nc(N3C[C@H](N)C[C@H](N)C3)nc(N3C[C@H](N)C[C@H](N)C3)n2)cc1)C(C)C", "ENDPOINT_RESULT": "> 64 µg/mL"}

Batch: MIC for all items listed.
1. COc1nc(Nc2ccc(NC(=O)c3ccc(C)cc3)c(O)c2)nc(N2C[C@H](N)C[C@H](N)C2)n1
2. NC[C@@H]1C[C@@H](O)CN1c1nc(Nc2ccc(C(=O)CC(=O)Nc3ccc4c(c3)OC(F)(F)O4)cc2)nc(N2C[C@H](N)C[C@H](N)C2)n1

1: < 64 µg/mL; 2: < 16 µg/mL

====

Tested on: Escherichia coli (ATCC25922) or Staphylococcus aureus (ATCC25923)
Experiment: Antibacterial MIC, microdilution method in Mueller-Hinton medium
Type: cell-based
Conditions: Escherichia coli, 18 h, MIC in E. coli or S. aureus; two-fold serial dilutions 64 to 0.5 μg/ml in duplicate; 18 hours of incubation at 35° C.; read-out: Potency (MIC)
READOUT: MIC

Please review the following examples before continuing.
{"MOLECULE": "N[C@@H]1C[C@H](N)CN(c2nc(N3CCC(n4c(=O)[nH]c5ccccc54)CC3)nc(N3C[C@H](N)C[C@H](N)C3)n2)C1", "ENDPOINT_RESULT": "> 64 µg/mL"}
{"MOLECULE": "Cl.N[C@@H]1C[C@H](N)CN(c2nc(Nc3ccc4[nH]cnc4c3)nc(N3C[C@H](N)C[C@H](N)C3)n2)C1", "ENDPOINT_RESULT": "< 64 µg/mL"}
{"MOLECULE": "Cl.O=C(Nc1ccc(Nc2nc(N3CCCCC3)nc(N3CCCCC3)n2)cc1O)c1c(Cl)cccc1Cl", "ENDPOINT_RESULT": "< 64 µg/mL"}
{"MOLECULE": "CC(C)CC(=O)Nc1ccc(Nc2nc(N3CCCCC3)nc(N3CCCCC3)n2)cc1O.Cl", "ENDPOINT_RESULT": "< 64 µg/mL"}
{"MOLECULE": "Cl.N[C@@H]1C[C@H](N)CN(c2nc(Nc3ccccc3-n3cccc3)nc(N3C[C@H](N)C[C@H](N)C3)n2)C1", "ENDPOINT_RESULT": "< 64 µg/mL"}

Batch request: MIC for each of the following molecules.
1. COc1ccc(-c2ccccc2)cc1Nc1nc(N2C[C@H](N)C[C@H](N)C2)nc(N2C[C@H](N)C[C@H](N)C2)n1
2. Cc1ccc(Nc2nc(N3C[C@H](N)C[C@H](N)C3)nc(N3C[C@H](N)C[C@H](N)C3)n2)cc1C.Cl
3. Cl.N[C@@H]1C[C@H](N)CN(c2nc(Nc3ccccc3F)nc(N3C[C@H](N)C[C@H](N)C3)n2)C1
4. Cl.O=C(Nc1ccc(Nc2nc(N3CCCCC3)nc(N3CCCCC3)n2)cc1Cl)c1ccc(F)c(F)c1O

1: < 64 µg/mL; 2: < 64 µg/mL; 3: > 64 µg/mL; 4: < 16 µg/mL
